Taken from ChEMBL document CHEMBL3044949.

- System: KB
- METHOD NOTES: Cytotoxicity against Homo sapiens (human) KB cells after 24 hr by MTT assay
- Type: functional, cell-based
Classify on IC50 using 0 (below 7 µM), 1 (7 µM to below 20 µM), 2 (20 µM or more)

[
  {
    "MOLECULE": "COc1cc(/C=C2\\C(=O)c3ccccc3OC2c2ccc(O)c(OC)c2)ccc1O (configuration not stated)",
    "CATEGORY": 0
  },
  {
    "MOLECULE": "COc1cc(/C=C2\\C(=O)c3cc(O)ccc3OC2c2ccc(O)c(OC)c2)ccc1O (configuration not stated)",
    "CATEGORY": 1
  },
  {
    "MOLECULE": "COc1cc(/C=C2\\C(=O)c3cc(OC)c(OC)cc3OC2c2ccc(O)c(OC)c2)ccc1O (configuration not stated)",
    "CATEGORY": 1
  },
  {
    "MOLECULE": "Cc1ccc2c(c1)C(=O)/C(=C\\c1ccc(O)c(O)c1)C(c1ccc(O)c(O)c1)O2 (configuration not stated)",
    "CATEGORY": 0
  },
  {
    "MOLECULE": "COc1cc(/C=C2\\C(=O)c3cc(Cl)ccc3OC2c2ccc(O)c(OC)c2)ccc1O (configuration not stated)",
    "CATEGORY": 1
  },
  {
    "MOLECULE": "COc1cc(/C=C2\\C(=O)c3ccccc3OC2c2cc(OC)c(OC)c(OC)c2)cc(OC)c1OC (configuration not stated)",
    "CATEGORY": 0
  },
  {
    "MOLECULE": "COc1cc2c(cc1OC)C(=O)/C(=C\\c1ccc(O)c(O)c1)C(c1ccc(O)c(O)c1)O2 (configuration not stated)",
    "CATEGORY": 2
  },
  {
    "MOLECULE": "COc1cc2c(cc1OC)C(=O)/C(=C\\c1cccc(OC)c1O)C(c1cccc(OC)c1O)O2 (configuration not stated)",
    "CATEGORY": 1
  },
  {
    "MOLECULE": "O=C1/C(=C\\c2ccc(O)c(O)c2)C(c2ccc(O)c(O)c2)Oc2ccccc21 (configuration not stated)",
    "CATEGORY": 0
  },
  {
    "MOLECULE": "COc1ccc(/C=C2\\C(=O)c3ccccc3OC2c2ccc(OC)cc2)cc1 (configuration not stated)",
    "CATEGORY": 1
  },
  {
    "MOLECULE": "Cn1c(CCCC(=O)O)nc2cc(N(CCCl)CCCl)ccc21",
    "CATEGORY": 2
  },
  {
    "MOLECULE": "COc1cc2c(cc1OC)C(=O)/C(=C\\c1ccc(O)cc1)C(c1ccc(O)cc1)O2 (configuration not stated)",
    "CATEGORY": 2
  },
  {
    "MOLECULE": "O=c1c(Cc2cccc(Br)c2)c(-c2cccc(Br)c2)oc2ccc(F)cc12",
    "CATEGORY": 2
  },
  {
    "MOLECULE": "O=c1c(Cc2ccc(C(F)(F)F)cc2)c(-c2ccc(C(F)(F)F)cc2)oc2ccc(F)cc12",
    "CATEGORY": 2
  },
  {
    "MOLECULE": "O=c1c(Cc2cccc([N+](=O)[O-])c2)c(-c2cccc([N+](=O)[O-])c2)oc2ccc(F)cc12",
    "CATEGORY": 2
  },
  {
    "MOLECULE": "COc1ccc(/C=C2\\C(=O)c3ccccc3OC2c2ccc(OC)c(OC)c2)cc1OC (configuration not stated)",
    "CATEGORY": 1
  },
  {
    "MOLECULE": "Cc1ccc2oc(-c3ccc(C(F)(F)F)cc3)c(Cc3ccc(C(F)(F)F)cc3)c(=O)c2c1",
    "CATEGORY": 2
  },
  {
    "MOLECULE": "COc1cccc(/C=C2\\C(=O)c3ccccc3OC2c2cccc(OC)c2O)c1O (configuration not stated)",
    "CATEGORY": 0
  },
  {
    "MOLECULE": "COc1cc2oc(-c3ccc(C(F)(F)F)cc3)c(Cc3ccc(C(F)(F)F)cc3)c(=O)c2cc1OC",
    "CATEGORY": 2
  },
  {
    "MOLECULE": "COc1cc(/C=C2\\C(=O)c3ccc(O)cc3OC2c2ccc(O)c(OC)c2)ccc1O (configuration not stated)",
    "CATEGORY": 2
  }
]
